# target desc: P2X7 receptor (Homo sapiens)
# Sequence (Q99572 whole entry): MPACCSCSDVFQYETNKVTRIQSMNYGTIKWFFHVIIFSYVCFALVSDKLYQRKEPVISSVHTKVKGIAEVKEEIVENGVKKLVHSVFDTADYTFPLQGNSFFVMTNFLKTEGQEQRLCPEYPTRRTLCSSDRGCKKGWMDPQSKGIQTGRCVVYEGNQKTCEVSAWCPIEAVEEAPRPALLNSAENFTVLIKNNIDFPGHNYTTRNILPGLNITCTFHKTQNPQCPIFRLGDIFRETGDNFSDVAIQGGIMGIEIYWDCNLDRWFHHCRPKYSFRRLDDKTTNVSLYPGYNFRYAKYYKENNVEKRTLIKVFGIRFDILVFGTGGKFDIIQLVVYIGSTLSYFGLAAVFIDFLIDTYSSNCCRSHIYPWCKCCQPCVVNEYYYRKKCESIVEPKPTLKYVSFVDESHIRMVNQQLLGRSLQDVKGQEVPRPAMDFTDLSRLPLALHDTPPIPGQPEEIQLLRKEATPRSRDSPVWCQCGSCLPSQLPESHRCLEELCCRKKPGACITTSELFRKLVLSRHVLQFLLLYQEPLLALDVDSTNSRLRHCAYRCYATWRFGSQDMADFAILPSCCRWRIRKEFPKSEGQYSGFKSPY
# assay protocol: Automated patch-clamp (QPatch16X) P2X7 channel assay
# Assay type: cell-based
# Set-up: expressed in transfected cells; host or cells: HEK-293
# condition: HEK-293 cells expressing P2X7 channels; whole-cell, held at -80 mV; 100 microM BzATP; compound 1, 10, 100 and 1000 nM; read-out: Q-Patch (IC50)
assay endpoint: IC50 (µM)

A selection of reference data follows.
• Cc1noc(C)c1Cc1noc(=O)n1CC1CCCCC1 [Example 210] = 0.149
• CC1(C)CCC(Cn2c(Cc3c(F)cccc3Cl)noc2=O)CC1 [Example 86] = 0.154
• O=c1onc(Cc2c(F)cccc2Cl)n1Cc1ccc(Cl)cc1 [Example 65] = 0.348

(I) Cc1cc(F)ccc1Cn1c(Cc2c(F)cccc2Cl)noc1=O [Example 25]
(II) O=c1onc(Cc2ccccc2C(F)(F)F)n1CC1CCCCC1 [Example 116]
// max by IC50 over [ I , II ] Give the chosen item's label as your response.
II
(II: 0.466 µM, I: 0.0511 µM)

* * *

This listing pairs compounds with measured IC50.
# target desc: P2X7 receptor (Homo sapiens)
# assay protocol: Screen Quest Fluo-8 No Wash Calcium Assay (Bz-ATP evoked Ca2+ influx, FLIPR)
# Assay type: cell-based
# Parameters: hP2X7 (IC50; nM); other: hP2X7; HEK-293 cells stably transfected with P2X7 receptor, Bz-ATP at EC80, Fluo-8 NW; potency
# condition: hP2X7; HEK-293 cells stably transfected with P2X7 receptor, Bz-ATP at EC80, Fluo-8 NW; potency ranges A-D

A selection of reference data follows.
- O=c1onc(Cc2ccc(F)cc2)n1Cc1ccc(Cl)cc1Cl: 200 to 1000 nM
- O=c1onc(Cc2c(F)cccc2Cl)n1Cc1ncc(F)cn1: > 10000 nM
- O=c1onc(CN2CCOc3ccccc32)n1CC1CCCCC1: < 200 nM
- O=c1onc(C(O)c2ccc(F)cc2F)n1Cc1c(F)cccc1Cl (centres unmarked): 1000 to 10000 nM
- O=c1snc(Cc2c(F)cccc2Cl)n1CC1CCC(F)(F)CC1: < 200 nM

With those in mind, consider the next compound.
Query O=c1onc(Cc2c(F)cccc2Cl)n1CC1CCCCC1(F)F (centres unmarked) yields IC50 of < 200 nM

* * *

# target desc: P2X7 receptor (Rattus norvegicus, UniProt Q64663)
# Construct: rP2X7 (IC50; nM); other: rP2X7; HEK-293 cells stably transfected with P2X7 receptor, Bz-ATP at EC80, Fluo-8 NW; potency
# Sequence (Q64663 1-595): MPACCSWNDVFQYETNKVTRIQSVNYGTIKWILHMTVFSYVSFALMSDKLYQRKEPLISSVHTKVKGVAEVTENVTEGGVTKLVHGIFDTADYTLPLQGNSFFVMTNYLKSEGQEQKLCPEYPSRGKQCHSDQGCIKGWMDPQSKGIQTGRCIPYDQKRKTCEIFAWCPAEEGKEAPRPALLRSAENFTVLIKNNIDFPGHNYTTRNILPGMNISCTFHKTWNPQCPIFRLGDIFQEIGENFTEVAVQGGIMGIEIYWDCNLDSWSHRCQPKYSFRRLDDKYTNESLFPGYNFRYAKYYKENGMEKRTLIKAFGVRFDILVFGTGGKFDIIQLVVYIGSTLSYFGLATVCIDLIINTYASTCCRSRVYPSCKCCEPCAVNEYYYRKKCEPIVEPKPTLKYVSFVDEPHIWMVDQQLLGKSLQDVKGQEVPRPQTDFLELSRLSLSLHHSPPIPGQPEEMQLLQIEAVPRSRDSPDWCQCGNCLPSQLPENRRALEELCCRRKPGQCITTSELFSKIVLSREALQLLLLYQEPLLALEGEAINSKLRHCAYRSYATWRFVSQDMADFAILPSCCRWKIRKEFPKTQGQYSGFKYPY
# assay protocol: Screen Quest Fluo-8 No Wash Calcium Assay (Bz-ATP evoked Ca2+ influx, FLIPR)
# Format: cell-based
# condition: rP2X7; HEK-293 cells stably transfected with P2X7 receptor, Bz-ATP at EC80, Fluo-8 NW; potency ranges A-D
This listing pairs compounds with measured IC50.

A selection of reference data follows.
* O=c1onc(Cc2ccccc2C(F)(F)F)n1Cc1ccc(F)cc1 [Example 105] | 1000 to 10000 nM
* O=c1onc(Cc2c(F)cccc2Cl)n1CC1CC1 [Example 83] | > 10000 nM
* O=c1onc(Cc2ccc(F)cc2F)n1Cc1c(F)cccc1Cl [Example 15] | 1000 to 10000 nM
* O=c1onc(Cc2c(F)cccc2Cl)n1Cc1cccnc1 [Example 42] | > 10000 nM
* Cc1cc(Cn2c(Cc3c(F)cccc3Cl)noc2=O)n(C)n1 [Example 46] | > 10000 nM
* O=c1onc(CC2CCC(F)(F)CC2)n1CC1CCCCC1 [Example 133] | 1000 to 10000 nM
* O=c1onc(Cc2ccccc2F)n1Cc1ccc(F)cc1 [Example 75] | 1000 to 10000 nM
* O=c1onc(Cc2c(F)cccc2Cl)n1Cn1ccc(C(F)(F)F)n1 [Example 35] | 1000 to 10000 nM
* Cc1cc(F)ccc1Cn1c(Cc2c(F)cccc2Cl)noc1=O [Example 25] | 200 to 1000 nM

With those in mind, consider the next compound.
Query O=c1onc(C(O)c2ccc(F)cc2F)n1Cc1c(F)cccc1Cl (stereo not shown) [Example 137] yields IC50 of 1000 to 10000 nM
